Taken from PubChem BioAssay.

# assay-summary: A549 lung cancer cell viability effects, profiling panel, resazurin fluorescence, 24 h, PK04 Diversity Set (AID 1171); note: test concentration not given here
# cond: higher = more signal, called active from +8 up or from −8 down
Threshold rule: z-score greater than or equal to -0.2 is True; below that, False.

Check out these entries, answers already filled in.
[N-]=[N+]=NCc1ccccc1[C@H]1OC(c2ccc(OCCCO)cc2)=N[C@@]1(Cc1ccccc1)C(=O)NCc1ccccc1 : True
C=C(CCCC)C(=O)CC[C@@H](OC(=O)c1cccnc1)c1ccc(CO)o1 : True
CC(=O)n1cc(C(O)C2C=CC3C(=O)N(C)C(=O)C3N2Nc2ccccc2)c2ccccc21 (stereo not drawn) : True
O=C(NCc1ccccc1)[C@@H]1c2ccccc2C(=O)N(CC23CC4CC(CC(C4)C2)C3)[C@H]1c1ccc(CO)cc1 : False
CN1C(=O)C2C=CC(C(O)C3=C[C@H]4C[C@@H](C3)C4(C)C)N(Nc3ccccc3)C2C1=O (stereo partly drawn) : True
COc1ccc(C(O)C2C=CC3C(=O)NC(=O)C3N2Nc2ccccn2)c2ccccc12 (stereo not drawn) : False
COC(=O)C(CC#Cc1ccc2c(c1)[C@]1(C(=O)N2)[C@H](c2ccc(O)cc2)N2[C@H](c3ccccc3)[C@H](c3ccccc3)OC(=O)[C@H]2[C@@H]1C(=O)Nc1nc2ccccc2s1)C(=O)OC : False
COc1ccc([Si](C)(C)[C@H]2[C@H](CC(=O)N3CCC[C@H]3CO)O[C@@]3(C(=O)N(Cc4cccc(N5C(=O)c6cccc7cccc5c67)c4)c4ccccc43)[C@@H]2C)cc1 : False
C=C[C@H](COC(C)=O)N(C(=O)OC(C)(C)C)S(=O)(=O)c1ccc(Br)cc1 : True
CN(C)CCCNC(=O)[C@@]1(C)c2ccccc2C(=O)N(Cc2cc(F)cc(C(F)(F)F)c2)[C@H]1c1ccc(CO)cc1 : True

Is the recorded value of z-score equal to or greater than -0.2 for this compound? O=C1O[C@H](c2ccccc2)[C@H](c2ccccc2)N2[C@H]1[C@@H](C(=O)O)[C@]1(C(=O)Nc3ccc(C#CCCO)cc31)[C@H]2c1ccc(O)cc1
True

Threshold query (z-score >= -0.2) on CCOC(=O)C1=CCC(c2ccccc2)N(S(=O)(=O)CC[Si](C)(C)C)C1 (stereo not drawn)
True

Is it the case that C=CCNC(=O)[C@H]1[C@@H]2C(=O)O[C@@H](c3ccccc3)[C@@H](c3ccccc3)N2[C@@H](c2ccccc2OCCO)[C@]12C(=O)Nc1ccc(C#CC3=CCCCC3)cc12 has z-score reaching or exceeding -0.2?
False
